- Assay Method Text: AUC (0 to t) in Sprague-Dawley rat at 10 mg/kg, po measured upto 24 hrs LC-MS/MS analysis
- Assay type: ADME, organism-based
- Stated Conditions: Sprague-Dawley, in vivo
Endpoint Label: AUC(0-t) at 24 h (ng·h/mL)

1. Cc1nc(-c2ccc(CSSC(C)(C)C)cc2)ncc1C(=O)N[C@@H](CCN)C(=O)N(C)[C@@H]1C(=O)N[C@@H](C)C(=O)N[C@H](C(=O)NCC#N)Cc2ccc(OCCN)c(c2)-c2cc1ccc2OCCN; 70.1

----------
- Assay Method Text: Clearance in Sprague-Dawley rat at 10 mg/kg, iv measured upto 24 hrs LC-MS/MS analysis
- Type: ADME, organism-based
- Stated Conditions: in vivo
Kindly return criterion met if reported clearance is no lower than 3 mL/min/kg; return criterion not met if it is lower.

1) CCCCSSCc1ccc(-c2ncc(C(=O)N[C@@H](CCN)C(=O)N(C)[C@@H]3C(=O)N[C@@H](C)C(=O)N[C@H](C(=O)NCC#N)Cc4ccc(OCCN)c(c4)-c4cc3ccc4OCCN)c(C)n2)cc1; criterion met
2) Cc1nc(-c2ccc(CSSC(C)(C)C)cc2)ncc1C(=O)N[C@@H](CCN)C(=O)N(C)[C@@H]1C(=O)N[C@@H](C)C(=O)N[C@H](C(=O)NCC#N)Cc2ccc(OCCN)c(c2)-c2cc1ccc2OCCN; criterion not met
3) Cc1nc(-c2ccc(SSC(C)(C)C)cc2)ncc1C(=O)N[C@@H](CCN)C(=O)N(C)[C@@H]1C(=O)N[C@@H](C)C(=O)N[C@H](C(=O)NCC#N)Cc2ccc(OCCN)c(c2)-c2cc1ccc2OCCN; criterion not met
4) Cc1nc(-c2ccc(C(C)(C)C)cc2)ncc1C(=O)N[C@@H](CCN)C(=O)N(C)[C@@H]1C(=O)N[C@@H](C)C(=O)N[C@H](C(=O)NCC#N)Cc2ccc(OCCN)c(c2)-c2cc1ccc2OCCN.Cl.Cl.Cl.Cl; criterion not met
5) CCCSSCc1ccc(-c2ncc(C(=O)N[C@@H](CCN)C(=O)N(C)[C@@H]3C(=O)N[C@@H](C)C(=O)N[C@H](C(=O)NCC#N)Cc4ccc(OCCN)c(c4)-c4cc3ccc4OCCN)c(C)n2)cc1; criterion met

----------
# MIC per entry
- Tested on: Pseudomonas aeruginosa
- Assay Method Text: Antibacterial activity against Pseudomonas aeruginosa 19-5 assessed as inhibition of bacterial growth measured after 18 to 20 hrs by broth microdilution method
- Assay type: functional
- Stated Conditions: time 18-20 hrs
Endpoint Label: MIC

1. Cc1nc(-c2ccc(C(C)(C)SSC(C)(C)C)cc2)ncc1C(=O)N[C@@H](CCN)C(=O)N(C)[C@@H]1C(=O)N[C@@H](C)C(=O)N[C@H](C(=O)NCC#N)Cc2ccc(OCCN)c(c2)-c2cc1ccc2OCCN.O=C(O)C(F)(F)F.O=C(O)C(F)(F)F.O=C(O)C(F)(F)F.O=C(O)C(F)(F)F; 4 µg/mL
2. Cc1nc(-c2ccc(C(C)(C)C)cc2)ncc1C(=O)N[C@@H](CCN)C(=O)N(C)[C@@H]1C(=O)N[C@@H](C)C(=O)N[C@H](C(=O)NCP(=O)(O)O)Cc2ccc(OCCN)c(c2)-c2cc1ccc2OCCN.Cl.Cl.Cl.Cl; 64 µg/mL
3. Cc1nc(-c2ccc(C(C)(C)C)cc2)ncc1C(=O)N[C@@H](CCN)C(=O)N(C)[C@H]1Cc2ccc(OCCN)c(c2)-c2cc(ccc2OCCN)[C@@H](C(=O)NCC#N)NC(=O)[C@H](C)NC1=O.Cl.Cl.Cl.Cl; > 64 µg/mL
4. Cc1nc(-c2ccc(CSSCC[Si](C)(C)C)cc2)ncc1C(=O)N[C@@H](CCN)C(=O)N(C)[C@@H]1C(=O)N[C@@H](C)C(=O)N[C@H](C(=O)NCC#N)Cc2ccc(OCCN)c(c2)-c2cc1ccc2OCCN.O=C(O)C(F)(F)F.O=C(O)C(F)(F)F.O=C(O)C(F)(F)F.O=C(O)C(F)(F)F; 4 µg/mL
